studyTarget: PCP receptor
test: [3H]TCP radioreceptor assay (binding to PCP recognition sites)
Set-up: species or system rat (male Sprague-Dawley, whole brain)
measurementSetup: [3H]TCP approx. 1 nM, rat brain membranes; mean of at least two determinations
measuredProperty: pKi
For clarity, pKi is expressed as the negative log10 of concentration in mol/L.

[
  {
    "compound": "c1ccc2c(c1)C1CC(c3nccs3)(c3nccs3)C2c2cccc[n+]21 (stereo not shown) [61(c)]",
    "measuredProperty": "pKi",
    "readoutNumber": 7.77
  },
  {
    "compound": "Oc1cccc2c1C1c3cccc[n+]3C2CC1(c1ccccc1)c1ccccc1 (stereo not shown) [28(c)]",
    "measuredProperty": "pKi",
    "readoutNumber": 7.93
  },
  {
    "compound": "Fc1ccc2c(c1)C1c3cccc[n+]3C2CC1(c1cc[nH]n1)c1cc[nH]n1 (stereo not shown) [198(b)]",
    "measuredProperty": "pKi",
    "readoutNumber": 7.93
  },
  {
    "compound": "c1ccc2c(c1)C1CC(c3ccn[nH]3)(c3ccn[nH]3)C2c2cccc[n+]21 (stereo not shown) [64(f)]",
    "measuredProperty": "pKi",
    "readoutNumber": 7.89
  },
  {
    "compound": "Oc1cccc2c1C1c3cccc[n+]3C2CC1(c1ccoc1)c1ccn[nH]1 (stereo not shown) [Example 200]",
    "measuredProperty": "pKi",
    "readoutNumber": 7.94
  }
]

Reported pKi of COc1ccc2c(c1)C1(c3ccccc3)C3c4ccccc4C(C1C2)[n+]1ccccc13 (stereo not shown) [3(d)] : 7.85

* * *

studyTarget: PCP receptor
test: [3H]TCP radioreceptor assay (binding to PCP recognition sites)
Parameters: species or system rat (male Sprague-Dawley, whole brain)
measurementSetup: [3H]TCP approx. 1 nM, rat brain membranes; mean of at least two determinations
Collected Ki values appear next to each entry.
Give just the numeric value; nM need not be written.

Example results:
[
  {
    "compound": "c1ccc(C2(c3ccccc3)C3c4ccccc4C([n+]4ccccc43)C23CC3)cc1 (stereo not shown)",
    "studyTarget": "PCP receptor",
    "resultUnit": "nM",
    "Ki": 9.07
  },
  {
    "compound": "Oc1ccc2c(c1)C1c3cccc[n+]3C2CC1(c1cc[nH]n1)c1cc[nH]n1 (stereo not shown)",
    "studyTarget": "PCP receptor",
    "resultUnit": "nM",
    "Ki": 12.6
  },
  {
    "compound": "CC1C2c3ccccc3C(c3cccc[n+]32)C1(c1ccoc1)c1ccoc1 (single isomer, unassigned) [181(d)]",
    "studyTarget": "PCP receptor",
    "resultUnit": "nM",
    "Ki": 6.15
  },
  {
    "compound": "Oc1cccc2c1C1c3cccc[n+]3C2CC1(c1cc[nH]c1)c1cc[nH]c1 (stereo not shown)",
    "studyTarget": "PCP receptor",
    "resultUnit": "nM",
    "Ki": 10.7
  },
  {
    "compound": "c1ccc2c(c1)C1CC(c3ccn[nH]3)(c3ccn[nH]3)C2c2cccc[n+]21 (stereo not shown) [63(d)]",
    "studyTarget": "PCP receptor",
    "resultUnit": "nM",
    "Ki": 10
  }
]

Input COc1cccc2c1C1c3cccc[n+]3C2CC1(c1ccoc1)c1ccoc1 (stereo not shown) . Output Ki: 6

Note to self: Ki recorded for CCOC(=O)C=CC(=O)Oc1cccc2c1C1c3cccc[n+]3C2CC1(c1ccoc1)c1ccoc1 (stereo not shown) was 7.68
